- tested_target: hDDC (human Dopa decarboxylase) (Homo sapiens, UniProt P20711)
- Construct: gene DDC; homodimer
- Sequence (P20711 whole entry): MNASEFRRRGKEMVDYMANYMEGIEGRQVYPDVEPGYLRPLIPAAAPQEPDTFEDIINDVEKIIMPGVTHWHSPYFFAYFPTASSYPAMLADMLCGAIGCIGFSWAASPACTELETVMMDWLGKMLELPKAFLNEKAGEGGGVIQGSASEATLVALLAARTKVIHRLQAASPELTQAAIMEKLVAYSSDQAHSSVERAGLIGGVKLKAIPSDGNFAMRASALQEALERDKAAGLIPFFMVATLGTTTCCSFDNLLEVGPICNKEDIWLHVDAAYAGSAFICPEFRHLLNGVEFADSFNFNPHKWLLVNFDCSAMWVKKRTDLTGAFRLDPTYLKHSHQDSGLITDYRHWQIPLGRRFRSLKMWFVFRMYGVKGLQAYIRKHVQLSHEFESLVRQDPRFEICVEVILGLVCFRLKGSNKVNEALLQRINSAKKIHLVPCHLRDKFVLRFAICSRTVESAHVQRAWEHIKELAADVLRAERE
- run_description: quenching of intrinsic fluorescence of apoenzyme, tight-binding quadratic fit
- test_context: read-out: KD(PLP)
measure: Kd (nM)
Numbers only here, please. The scale is nM.

So for Cc1ncc(COP(=O)(O)O)c(C=O)c1O [PLP] , the logged Kd turned out to be 200

Ref: paper PMC3677616
